Assignment: determine reported solubility at 1 h for the given molecules.
- Test Details: Test Example 12: solubility in physiological saline
- Format: physicochemical
- Study Conditions: saline or isotonic, thermodynamic from solid, 37° C., one hour, 1 mg/mL nominal

Ask: Could you share which solubility at 1 h value was measured for CN(C)C(=O)CCc1n[nH]c2cc(OCCNC[C@H](O)c3cccc(NS(C)(=O)=O)c3)ccc12 ?
Reply: ≥ 1000 µg/mL

Ask: Consider the molecule shown here: CCc1n[nH]c2cc(OCCNC[C@H](O)c3cccc(NS(C)(=O)=O)c3)ccc12 What is its recorded solubility at 1 h?
Reply: ≥ 1000 µg/mL

Ask: solubility at 1 h for CC(C)c1n[nH]c2cc(OCCNC[C@H](O)c3cccc(NS(C)(=O)=O)c3)ccc12 ?
Reply: ≥ 1000 µg/mL

----------
- Test system: rat under pentobarbital anesthesia
- Test Details: Test Example 9: effect on blood pressure and heart rate of rat under pentobarbital anesthesia
- Assay type: in vivo
- Study Conditions: 3 mg/kg intravenous, male SD rat, average value ± standard error of largest change
Measured Parameter: increase in MBP (%)
Output should be the measured figure followed by the unit it is expressed in.

Ask: For the compound shown here, CS(=O)(=O)Nc1cc([C@@H](O)CNCCOc2ccc3c(C(F)(F)F)n[nH]c3c2)ccc1Cl , give the reported increase in MBP (%).
Reply: 1.8 ± 1.4%

Ask: Value lookup for increase in MBP (%); key = CC(C)c1n[nH]c2cc(OCCNC[C@H](O)c3cccc(NS(C)(=O)=O)c3)ccc12
Reply: 4.7 ± 2.1%

Ask: What does the record list as increase in MBP (%) for CN(C)C(=O)CCc1n[nH]c2cc(OCCNC[C@H](O)c3cccc(NS(C)(=O)=O)c3)ccc12 ?
Reply: 3.4 ± 2.2%

Ask: Given the entry CCc1n[nH]c2cc(OCCNC[C@H](O)c3ccc(F)c(NS(C)(=O)=O)c3)ccc12 , report its measured increase in MBP (%).
Reply: 0.4 ± 0.5%
